Measurement description: Solubility in culture medium
Type: physicochemical
# binarize solubility: threshold 900 µM inclusive, high side satisfied, low side not satisfied

## Input Hi team, for NC(=O)c1cc([N+](=O)[O-])cc([N+](=O)[O-])c1N1CC1 , is the recorded solubility at or above 900 µM?
## Output satisfied

## Input Decide: is the reported value of solubility for CN(CCN1CCOCC1)C(=O)c1cc(N2CC2)c([N+](=O)[O-])cc1[N+](=O)[O-] equal to or greater than 900 µM?
## Output satisfied

## Input Identify whether the reported solubility of the following molecule is 900 µM or greater: O=C(NCCn1ccnc1)c1cc(N2CC2)c([N+](=O)[O-])cc1[N+](=O)[O-]
## Output satisfied

## Input Quick check: does O=C(NCCN1CCOCC1)c1cc(N2CC2)c([N+](=O)[O-])cc1[N+](=O)[O-] have solubility greater than or equal to 900 µM?
## Output satisfied

## Input Could you tell me if the measured solubility of O=C(NCCCN1CCOCC1)c1cc(N2CC2)c([N+](=O)[O-])cc1[N+](=O)[O-] reaches 900 µM or more?
## Output satisfied

## Input Is reported solubility greater than or equal to 900 µM here: NC(=O)c1ccc([N+](=O)[O-])c(N2CC2)c1
## Output not satisfied

## Input In plain terms: is recorded solubility at least 900 µM for NC(=O)c1cc([N+](=O)[O-])c(N2CC2)c([N+](=O)[O-])c1 ?
## Output not satisfied

## Input Given NC(=O)c1cc(N2CC2)ccc1[N+](=O)[O-] , state whether its solubility is at least 900 µM.
## Output satisfied

## Input Decide: solubility of CC(=O)CCNC(=O)c1cc(N2CC2)c([N+](=O)[O-])cc1[N+](=O)[O-] >= 900 µM?
## Output not satisfied

## Input Hello, I need to know if O=C(NCC(O)CO)c1cc(N2CC2)c([N+](=O)[O-])cc1[N+](=O)[O-] (configuration not stated) has measured solubility not below 900 µM. Thanks!
## Output satisfied

## Input solubility >= 900 µM for O=C(NCCCCN1CCOCC1)c1cc(N2CC2)c([N+](=O)[O-])cc1[N+](=O)[O-] ?
## Output satisfied

---

System: SK-OV-3
Measurement description: Growth inhibitory potency against NTR-Transfected (nitroreductase) human ovarian cell line known as SKOV3-NTR neo cell line
Format: functional, cell-based
Property label: IC50 (µM)
Reply with just the number (in µM).

Note to self: IC50 of NC(=O)c1cc([N+](=O)[O-])cc([N+](=O)[O-])c1N1CC1 with SK-OV-3 was 6.1

Simply: O=C(NCCCCN1CCOCC1)c1cc(N2CC2)c([N+](=O)[O-])cc1[N+](=O)[O-] , SK-OV-3, IC50 = 0.3

Record CC(=O)CCNC(=O)c1cc(N2CC2)c([N+](=O)[O-])cc1[N+](=O)[O-] ; system SK-OV-3; IC50 = 2.5

# CS(=O)(=O)c1cc([N+](=O)[O-])c(N2CC2)cc1C(=O)NCC(O)CO (centres undefined) with SK-OV-3: IC50 is 160

// returns IC50 for O=C(NCCN1CCOCC1)c1cc(N2CC2)c([N+](=O)[O-])cc1[N+](=O)[O-] with SK-OV-3; value = 0.45

O=C(NCC(O)CO)c1cc([N+](=O)[O-])cc([N+](=O)[O-])c1N1CC1 (centres undefined) tested on SK-OV-3 gave IC50: 7.3

# IC50 measured on SK-OV-3 for item O=C(NCCCN1CCOCC1)c1cc(N2CC2)c([N+](=O)[O-])cc1[N+](=O)[O-] = 0.15

# lookup: O=C(NCCN1CCOCC1)c1cc([N+](=O)[O-])cc([N+](=O)[O-])c1N1CC1 on SK-OV-3, IC50 = 11
